The measurements presented in this section are drawn from patent US20230339937A1.

What IC50 was measured for each of the following?
# target-or-test-system: Recombinant human H-PGDS (Homo sapiens, UniProt O60760)
# Sequence (O60760 whole entry): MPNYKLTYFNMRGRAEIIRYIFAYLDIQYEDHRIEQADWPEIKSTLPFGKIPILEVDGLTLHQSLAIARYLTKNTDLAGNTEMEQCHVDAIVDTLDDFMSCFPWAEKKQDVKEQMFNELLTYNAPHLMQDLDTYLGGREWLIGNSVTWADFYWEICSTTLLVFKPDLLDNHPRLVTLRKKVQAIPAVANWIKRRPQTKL
# experiment-description: H-PGDS inhibitory activity (prostaglandin D2 production from prostaglandin H2, measured by LC-MS/MS)
# condition-description: recombinant human H-PGDS 1.0 nM expressed in E. coli; prostaglandin H2 25 μM; preincubated 15 minutes on ice, reacted on ice for 1 minute; concentration that inhibits prostaglandin D2 production by 50%
Answer with a number only, understood to be in nM.

// field: IC50; key: CCC(=O)N[C@H]1CC[C@H](NC(=O)c2ccc(-c3nccc4occc34)cc2)CC1 [Example 298] ; value = 3.4

// field: IC50; key: CCOCCNC(=O)c1ccc(-c2nccc3[nH]ccc23)cc1 [Example 27] ; value = 0.98

// field: IC50; key: O=C(NCc1ccccc1)c1ccc(-c2nccc3occc23)cc1 [Example 67] ; value = 27

// field: IC50; key: O=C(NC1CN(c2ncccn2)C1)c1ccc(-c2nccc3occc23)cc1 [Example 217] ; value = 2.4

// field: IC50; key: CO[C@H]1CCC[C@@H](NC(=O)c2ccc(-c3nccc4occc34)cc2)C1 (relative stereo) [Example 275] ; value = 1.8

// field: IC50; key: O=C(NCc1ccco1)c1ccc(-c2nccc3[nH]ccc23)cc1 [Example 26] ; value = 1.7

// field: IC50; key: O=C(NC1CCC1)c1ccc(-c2nccc3occc23)cc1 [Example 86] ; value = 21

// field: IC50; key: O=C(N[C@H]1CC[C@H](N2CCCCC2=O)CC1)c1ccc(-c2nccc3occc23)cc1 [Example 300] ; value = 4.7

// field: IC50; key: O=C(NCC1CCOC1)c1ccc(-c2nccc3[nH]ccc23)cc1 (centres unmarked) [Example 21] ; value = 0.82

// field: IC50; key: O=C(N[C@H]1CCN(c2ccc(CO)cn2)C1)c1ccc(-c2nccc3occc23)cc1 [Example 197] ; value = 6.1

// field: IC50; key: COC(=O)[C@H]1CC[C@H](NC(=O)c2ccc(-c3nccc4occc34)cc2)CC1 [Example 261] ; value = 1.6

// field: IC50; key: O=C(N[C@H]1CCN(c2ncccn2)C1)c1ccc(-c2nccc3occc23)c(F)c1 [Example 328] ; value = 0.74

// field: IC50; key: O=C(NC1CN(c2ccccn2)C1)c1ccc(-c2nccc3occc23)cc1 [Example 113] ; value = 2.5

// field: IC50; key: NC(=O)c1cnc(N2CC[C@H](NC(=O)c3ccc(-c4nccc5occc45)cc3)C2)nc1 [Example 202] ; value = 1.5

// field: IC50; key: CC(=O)NCCNC(=O)c1ccc(-c2nccc3[nH]ccc23)cc1 [Example 28] ; value = 1.4

// field: IC50; key: O=C1CCC(NC(=O)c2ccc(-c3nccc4occc34)cc2)CC1 [Example 303] ; value = 2.1

// field: IC50; key: O=C(N[C@H]1CC[C@H](O)CC1)c1ccc(-c2nccc3occc23)c(F)c1 [Example 325] ; value = 2.3

// field: IC50; key: CCCCn1nnnc1N1CCC(NC(=O)c2ccc(-c3nccc4occc34)cc2)CC1 [Example 241] ; value = 2.7

// field: IC50; key: O=C(NC1CCN(c2ncc(CO)o2)CC1)c1ccc(-c2nccc3occc23)cc1 [Example 255] ; value = 1.5

// field: IC50; key: O=C(N[C@H]1CC[C@H](C(F)F)CC1)c1ccc(-c2nccc3occc23)cc1 [Example 310] ; value = 2.6

// field: IC50; key: N#Cc1ccnc(N2CCC(NC(=O)c3ccc(-c4nccc5occc45)cc3)CC2)n1 [Example 164] ; value = 0.78

// field: IC50; key: CCOCCNC(=O)c1ccc(-c2nccc3occc23)cc1 [Example 80] ; value = 32

// field: IC50; key: O=C(NCC(O)CO)c1ccc(-c2nccc3[nH]ccc23)cc1 (centres unmarked) [Example 34] ; value = 2.4

// field: IC50; key: Cc1cc2occc2c(-c2ccc(C(=O)N[C@H]3CC[C@H](C(C)(C)O)CC3)cc2)n1 [Example 127] ; value = 1.6

// field: IC50; key: Cn1cnc(CO)c1N1CCC(NC(=O)c2ccc(-c3nccc4occc34)cc2)CC1 [Example 253] ; value = 1.1

// field: IC50; key: CC(C)(O)[C@@H]1CC[C@@H](NC(=O)c2ccc(-c3nccc4occc34)cc2)CO1 [Example 214] ; value = 3.4

// field: IC50; key: CC1(C)CC(NC(=O)c2ccc(-c3nccc4occc34)cc2)CCC1O (centres unmarked) [Example 277] ; value = 3.5

// field: IC50; key: O=C(NCC1CCOC1)c1ccc(-c2nccc3occc23)cc1 (centres unmarked) [Example 81] ; value = 11

// field: IC50; key: O=C(N[C@H]1CC[C@H](OCC2(O)CC2)CC1)c1ccc(-c2nccc3occc23)c(F)c1 [Example 347] ; value = 2

// field: IC50; key: O=C(NCC1CCCC1)c1ccc(-c2nccc3[nH]ccc23)cc1 [Example 36] ; value = 0.83

// field: IC50; key: O=C(Nc1ccc(F)cc1)c1ccc(-c2nccc3occc23)cc1 [Example 111] ; value = 5.5

// field: IC50; key: CC(O)CNC(=O)c1ccc(-c2nccc3occc23)cc1 (centres unmarked) [Example 68] ; value = 15

// field: IC50; key: O=C(NC[C@H]1C[C@H](O)C1)c1ccc(-c2nccc3occc23)cc1 [Example 218] ; value = 21

// field: IC50; key: CCCCNC(=O)c1ccc(-c2nccc3occc23)cc1 [Example 75] ; value = 20

// field: IC50; key: O=C(N[C@H]1CCN(c2ccc(Cl)nn2)C1)c1ccc(-c2nccc3occc23)cc1 [Example 228] ; value = 1.9

----------
# target-or-test-system: Recombinant human H-PGDS (Homo sapiens)
# Construct: made in house; host or cells: E. coli
# experiment-description: H-PGDS inhibitory activity (prostaglandin D2 production from prostaglandin H2, measured by LC-MS/MS)
# Type: biochemical
# condition-description: recombinant human H-PGDS 1.0 nM expressed in E. coli; prostaglandin H2 25 μM; preincubated 15 minutes on ice, reacted on ice for 1 minute; concentration that inhibits prostaglandin D2 production by 50%
What IC50 was measured for each of the following?
Answer with a number only, understood to be in nM.

// field: IC50; key: O=C(NC1CC1)c1ccc(-c2nccc3occc23)cc1 [Example 95] ; value = 8.7

// field: IC50; key: CC(=O)NCCCCNC(=O)c1ccc(-c2nccc3[nH]ccc23)cc1 [Example 29] ; value = 0.46

// field: IC50; key: Cn1nnnc1N1CCC(NC(=O)c2ccc(-c3nccc4occc34)cc2)CC1 [Example 99] ; value = 1.6

// field: IC50; key: CC(C)[C@]1(O)CC[C@@H](NC(=O)c2ccc(-c3nccc4occc34)cc2)CC1 [Example 292] ; value = 1.9

// field: IC50; key: CC(=O)N1CCC(NC(=O)c2ccc(-c3nccc4occc34)cc2)CC1 [Example 186] ; value = 2.3

// field: IC50; key: O=C(NC[C@H]1CC[C@@H](O)CC1)c1ccc(-c2nccc3occc23)cc1 [Example 114] ; value = 25

// field: IC50; key: O=C(N[C@H]1CC[C@H](CO)CC1)c1ccc(-c2nccc3occc23)cc1 [Example 120] ; value = 3.3

// field: IC50; key: O=C(NC1CCN(c2ccncc2)CC1)c1ccc(-c2nccc3occc23)cc1 [Example 123] ; value = 1.8

// field: IC50; key: CCCCCCNC(=O)c1ccc(-c2nccc3[nH]ccc23)cc1 [Example 6] ; value = 1.8

----------
# target-or-test-system: Recombinant human H-PGDS (Homo sapiens, UniProt O60760)
# experiment-description: H-PGDS inhibitory activity (prostaglandin D2 production from prostaglandin H2, measured by LC-MS/MS)
# condition-description: recombinant human H-PGDS 1.0 nM expressed in E. coli; prostaglandin H2 25 μM; preincubated 15 minutes on ice, reacted on ice for 1 minute; concentration that inhibits prostaglandin D2 production by 50%
What IC50 was measured for each of the following?
Please answer in the form of a number followed by its unit of measurement.

// field: IC50; key: O=C(N[C@@H]1CCC[C@H](O)C1)c1ccc(-c2nccc3occc23)cc1 (relative stereo) ; value = 4.8 nM

// field: IC50; key: "O=C(NC1CCCCC1)c1ccc(-c2nccc3[nH]ccc23)cc1" ; value = 1.6 nM

// field: IC50; key: "O=C(N[C@H]1CCN(c2cccc(=O)[nH]2)C1)c1ccc(-c2nccc3occc23)cc1" ; value = 7.5 nM

// field: IC50; key: "O=C(NCc1cccnc1)c1ccc(-c2nccc3occc23)cc1" ; value = 24 nM

// field: IC50; key: "O=C(N[C@H]1CC[C@H](N2CCCC2=O)CC1)c1ccc(-c2nccc3occc23)cc1" ; value = 4 nM

// field: IC50; key: "Cc1cc2occc2c(-c2ccc(C(=O)N[C@H]3CC[C@](C)(O)CC3)cc2)n1" ; value = 1.7 nM

// field: IC50; key: "CC(C)(O)CNC(=O)c1ccc(-c2nccc3[nH]ccc23)cc1" ; value = 1.5 nM

// field: IC50; key: "O=C(N[C@H]1C[C@H](O)C1)c1ccc(-c2nccc3occc23)cc1" ; value = 6.4 nM
